tested on: HEL; assay: cell viability (% survival relative to DMSO control, bortezomib = 0%); higher = less cytotoxic; conditions: 1 nM; 72 h
measurement.label: cell viability (%)
Report the figure in % without appending any unit label.

## Task Annotate the compound O[C@H]1[C@H]2[C@H](O)CCCN2C[C@H]1O with its measured cell viability.
## Result 99.2

## Task Annotate the compound CC(C)c1cc2c(c(O)c1O)[C@@]1(C(=O)O)CCCC(C)(C)[C@@H]1CC2 with its measured cell viability.
## Result 100

## Task Annotate the compound COC(=O)[C@]12CCC(C)(C)C[C@H]1[C@H]1C(=O)C=C3[C@@]4(C)C=C(C#N)C(=O)C(C)(C)[C@@H]4CC[C@@]3(C)[C@]1(C)CC2 with its measured cell viability.
## Result 106

## Task Annotate the compound Cc1cn([C@H]2C[C@H](O)[C@@H](COP(=O)(O)OP(=O)(O)O)O2)c(=O)[nH]c1=O [Thymidine diphosphate] with its measured cell viability.
## Result 99.1

## Task Annotate the compound O=C(NCCCCCCNC(=O)ONC1=CCCCC1)ONC1=CCCCC1 with its measured cell viability.
## Result 90.8

## Task Annotate the compound O=C(NNc1ccccc1)c1ccncc1 with its measured cell viability.
## Result 95.1

## Task Annotate the compound N#CC(C#N)=NNc1ccc(OC(F)(F)F)cc1 with its measured cell viability.
## Result 120

## Task Annotate the compound NC(=O)c1cccc(-c2cccc(OC(=O)NC3CCCCC3)c2)c1 with its measured cell viability.
## Result 102

## Task Annotate the compound CCCCN1C[C@H](O)[C@@H](O)[C@H](O)[C@H]1CO with its measured cell viability.
## Result 92.6

## Task Annotate the compound C=C(C)[C@H]1Cc2c(ccc3c2O[C@@H]2COc4cc(OC)c(OC)cc4[C@@H]2C3=O)O1 with its measured cell viability.
## Result 99.4

## Task Annotate the compound Cc1c(-c2ccc(-c3ccccc3F)cc2)nc2ccc(F)cc2c1C(=O)O with its measured cell viability.
## Result 101

## Task Annotate the compound NS(=O)(=O)c1ccc([N+](=O)[O-])cc1 [4-Nitrobenzenesulfonamide] with its measured cell viability.
## Result 105

## Task Annotate the compound COc1ccc(-c2ccccc2)cc1NS(=O)(=O)c1cc(Cl)cc(Cl)c1O with its measured cell viability.
## Result 106

## Task Annotate the compound CCCCCCCCCCCC(=O)c1c(O)c(C(=O)CCCCCCCCCCC)c(O)c(C2CC(c3ccc(O)cc3)Oc3cc(O)ccc32)c1O (centres undefined) with its measured cell viability.
## Result 108
